# system: HLA A*0301 (Homo sapiens)
# Construct: purchased
# assay: ITOPIA peptide binding assay
# condition summary: 1.11×10^−4M of peptide
A collection of substances and their measured level of binding, percent of positive control peptide binding
parameter measured: level of binding, percent of positive control peptide binding

{"substance": "CSSNITGLI [compound 154]", "result": "0% of positive control"}
{"substance": "KLAGRWPVT [compound 157]", "result": "9% of positive control"}
{"substance": "ALFYKLDVI [compound 158]", "result": "14% of positive control"}
{"substance": "VTLTEEAEL [compound 156]", "result": "0% of positive control"}
{"substance": "70 (VPLTEEAEL; HIV) [compound 70]", "result": "0% of positive control"}
{"substance": "RGRQKVVSL [compound 68]", "result": "0% of positive control"}

---

Collected iScore values appear next to each entry.
# system: HLA B*0801 (Homo sapiens, UniProt P01889, A93T/A95T/D138N/E176V/E187T/K202T/Q94N/R180D/S35A/V36M/Y33D/Y91F)
# Construct: purchased
# assay: Multi-parametric analysis iScore
# Format: binding
# Set-up: scale not given here
# condition summary: index integrating t1/2 and ED50

{"substance": "YNEWTLELL [compound 22]", "iScore": 0}
{"substance": "ALFYKLDVV [compound 72]", "iScore": 0}
{"substance": "ALFYKLDVI [compound 158]", "iScore": 0}
{"substance": "70 (VPLTEEAEL; HIV) [compound 70]", "iScore": 0}
{"substance": "155 (HNEWTLELL; HIV) [compound 155]", "iScore": 0}
{"substance": "RGRQKVVSL [compound 68]", "iScore": 0.100}
{"substance": "VTLTEEAEL [compound 156]", "iScore": 0}
{"substance": "KLAGRWPVK [compound 71]", "iScore": 0}
{"substance": "RGRQKVVSI [compound 153]", "iScore": 0.165}
{"substance": "CSSNITGLI [compound 154]", "iScore": 0}
{"substance": "FPRIWLHGL [compound 152]", "iScore": 0.189}
{"substance": "KLAGRWPVT [compound 157]", "iScore": 0}
{"substance": "CSSNITGLL [compound 69]", "iScore": 0}

---

# system: HLA A*1101 (Homo sapiens, UniProt P04439, A114D/D185E/E176A/F33Y/L180Q/S129P/T187R)
# Construct: purchased
# assay: Multi-parametric analysis iScore
# Format: binding
# Parameters: scale not given here
# condition summary: index integrating t1/2 and ED50
# Description: Multi-parametric analysis was performed to integrate the half-life (t½) and ED50 parameters in an index (iScore). The iScore (Table 13) reflects the capability of a peptide to reconstitute with MHC molecules in a stable complex, defining its overall level of binding.
The substances listed here are annotated with their iScore.

{"substance": "70 (VPLTEEAEL; HIV) [compound 70]", "system": "HLA A*1101 (Homo sapiens, UniProt P04439, A114D/D185E/E176A/F33Y/L180Q/S129P/T187R)", "iScore": 0}
{"substance": "FPRIWLHGL [compound 152]", "system": "HLA A*1101 (Homo sapiens, UniProt P04439, A114D/D185E/E176A/F33Y/L180Q/S129P/T187R)", "iScore": 0}
{"substance": "YNEWTLELL [compound 22]", "system": "HLA A*1101 (Homo sapiens, UniProt P04439, A114D/D185E/E176A/F33Y/L180Q/S129P/T187R)", "iScore": 0}
{"substance": "CSSNITGLI [compound 154]", "system": "HLA A*1101 (Homo sapiens, UniProt P04439, A114D/D185E/E176A/F33Y/L180Q/S129P/T187R)", "iScore": 0}
{"substance": "CSSNITGLL [compound 69]", "system": "HLA A*1101 (Homo sapiens, UniProt P04439, A114D/D185E/E176A/F33Y/L180Q/S129P/T187R)", "iScore": 0}
{"substance": "RGRQKVVSL [compound 68]", "system": "HLA A*1101 (Homo sapiens, UniProt P04439, A114D/D185E/E176A/F33Y/L180Q/S129P/T187R)", "iScore": 0}
{"substance": "KLAGRWPVT [compound 157]", "system": "HLA A*1101 (Homo sapiens, UniProt P04439, A114D/D185E/E176A/F33Y/L180Q/S129P/T187R)", "iScore": 0.039}
{"substance": "ALFYKLDVI [compound 158]", "system": "HLA A*1101 (Homo sapiens, UniProt P04439, A114D/D185E/E176A/F33Y/L180Q/S129P/T187R)", "iScore": 0}
{"substance": "VTLTEEAEL [compound 156]", "system": "HLA A*1101 (Homo sapiens, UniProt P04439, A114D/D185E/E176A/F33Y/L180Q/S129P/T187R)", "iScore": 0}
{"substance": "ALFYKLDVV [compound 72]", "system": "HLA A*1101 (Homo sapiens, UniProt P04439, A114D/D185E/E176A/F33Y/L180Q/S129P/T187R)", "iScore": 0}
{"substance": "RGRQKVVSI [compound 153]", "system": "HLA A*1101 (Homo sapiens, UniProt P04439, A114D/D185E/E176A/F33Y/L180Q/S129P/T187R)", "iScore": 0}
{"substance": "155 (HNEWTLELL; HIV) [compound 155]", "system": "HLA A*1101 (Homo sapiens, UniProt P04439, A114D/D185E/E176A/F33Y/L180Q/S129P/T187R)", "iScore": 0}
{"substance": "KLAGRWPVK [compound 71]", "system": "HLA A*1101 (Homo sapiens, UniProt P04439, A114D/D185E/E176A/F33Y/L180Q/S129P/T187R)", "iScore": 0.834}

---

# system: HLA B*1501 (Homo sapiens, UniProt P01889, A329T/A93T/A95T/C349S/D201E/D98Y/E187L/E204Q/E69M/E70A/K202T/N87E/Q94N/R155S/R180W/S121R/S35A/S48A/V306I/V36M/Y140S/Y91S)
# Construct: purchased
# assay: ITOPIA peptide binding assay
# condition summary: 1.11×10^−4M of peptide
parameter measured: level of binding, percent of positive control peptide binding

{"substance": "ALFYKLDVV [compound 72]", "result": "4% of positive control"}
{"substance": "70 (VPLTEEAEL; HIV) [compound 70]", "result": "4% of positive control"}
{"substance": "ALFYKLDVI [compound 158]", "result": "3% of positive control"}
{"substance": "RGRQKVVSI [compound 153]", "result": "7% of positive control"}
{"substance": "CSSNITGLI [compound 154]", "result": "40% of positive control"}
{"substance": "RGRQKVVSL [compound 68]", "result": "55% of positive control"}
{"substance": "VTLTEEAEL [compound 156]", "result": "7% of positive control"}
{"substance": "CSSNITGLL [compound 69]", "result": "30% of positive control"}
{"substance": "FPRIWLHGL [compound 152]", "result": "3% of positive control"}
{"substance": "KLAGRWPVK [compound 71]", "result": "2% of positive control"}
{"substance": "KLAGRWPVT [compound 157]", "result": "6% of positive control"}
{"substance": "155 (HNEWTLELL; HIV) [compound 155]", "result": "0% of positive control"}
{"substance": "YNEWTLELL [compound 22]", "result": "0% of positive control"}

---

Each entry below carries its recorded iScore.
# system: HLA B*0702 (Homo sapiens, UniProt P01889)
# Construct: purchased
# assay: Multi-parametric analysis iScore
# Type: binding
# Set-up: scale not given here
# condition summary: index integrating t1/2 and ED50

{"substance": "KLAGRWPVK [compound 71]", "iScore": 0}
{"substance": "RGRQKVVSL [compound 68]", "iScore": 0.307}
{"substance": "ALFYKLDVI [compound 158]", "iScore": 0}
{"substance": "FPRIWLHGL [compound 152]", "iScore": 0.421}
{"substance": "CSSNITGLI [compound 154]", "iScore": 0}
{"substance": "CSSNITGLL [compound 69]", "iScore": 0}
{"substance": "155 (HNEWTLELL; HIV) [compound 155]", "iScore": 0}
{"substance": "KLAGRWPVT [compound 157]", "iScore": 0}
{"substance": "ALFYKLDVV [compound 72]", "iScore": 0}
{"substance": "VTLTEEAEL [compound 156]", "iScore": 0}
{"substance": "70 (VPLTEEAEL; HIV) [compound 70]", "iScore": 0}
{"substance": "YNEWTLELL [compound 22]", "iScore": 0}
{"substance": "RGRQKVVSI [compound 153]", "iScore": 0.271}
